Kindly state GI50 for each of the entries shown.
# Test system: NCI-H226
# METHOD_NOTES: NCI tumour cell line growth inhibition, 48 h
Activity calls are given as the source filed them. Rule as the data show it: active = GI50 up to about 1.1 µM and inactive = higher. Non-standard residues stand in square brackets, D forms with d. Residues, ends and D or L forms follow the SMILES beside them. *: point of attachment. hSer = N[CH](CCO)C(=O)O; Boc = CC(C)(C)OC(=O)*

Lookup result for c1ccc(N/N=C2\NN=C(c3ccccc3)CS2)cc1 ; measured GI50: 16 µM (inactive)

GI50 measured on OCC1COc2cc(Cl)c(Cl)cc2O1 (stereo unspecified) = 6.3 µM (inactive)

GI50 recorded for this compound, Oc1c(C2=NNC(c3ccc(Cl)cc3Cl)C2)ccc2ccccc12 (stereo unspecified) , is 50.4 µM (inactive)

GI50 measured on CC12CCC([C@H](C(O)C3CCCCC3)C1=O)C2(C)C (stereo partly specified) = > 100 µM (inactive)

GET /value?item= O=c1[nH]c2nc(S)nc(S)c2[nH]1 &field=GI50 returns > 100 µM (inactive)

// Cc1nc(OCc2ccccc2)c2ncn(CCO)c2n1 : GI50 value = > 100 µM (inactive)

The recorded GI50 for CCOc1cc(C=O)ccc1O [ETHYL VANILLIN] is > 100 µM (inactive)

get_value(item= Cc1nc(N)nc2ccccc12 , readout=GI50) returns 0.172 µM (active)

// GI50 value for COCCC(NC(=O)C(CC(C)C)NC(=O)OC(C)(C)C)C(N)=O (stereo not drawn) (Boc-Leu-[hSer](Me)-NH2; configuration not given here) : > 100 µM (inactive)

GI50 recorded for this compound, COc1cc(C2SC(=N)Nc3c2c(C)nn3C(=O)c2ccccc2O)ccc1O (stereo unspecified) , is > 2.25 µM (inactive)

GET /value?item= CC1(C)CCC2=C(O1)/C(=N\Nc1ccccc1)c1ccccc1C2=O &field=GI50 returns 39.9 µM (inactive)
